# Test system: Heart
# test_name: Biodistribution in NMRI mouse heart assessed per gram of tissue at 3.7 MBq/mL, iv after 60 mins by gamma counting
# Format: ADME, organism-based
# conditions: in vivo, 1 h
assay_readout: Drug uptake (% ID/g)

Oc1ccc2nc(-c3ccc([18F])cc3)sc2c1
1.3
COc1ccc2nc(-c3ccc([18F])cc3)sc2c1
0.6

P. Cc1ccc2nc(-c3ccc([18F])cc3)sc2c1
Q. [11CH3]Nc1ccc(-c2nc3ccc(O)cc3s2)cc1
## Task Lowest Drug uptake? choose P or Q Use the label to indicate which entry you chose.
## Result P

* * *

# test_name: Biodistribution in NMRI mouse urine at 3.7 MBq/mL, iv after 60 mins by gamma counting
# Format: ADME, organism-based
# conditions: in vivo, 1 h
assay_readout: Drug uptake (%ID)

P. COc1ccc2nc(-c3ccc([18F])cc3)sc2c1
Q. [11CH3]Nc1ccc(-c2nc3ccc(O)cc3s2)cc1 [PITTSBURGH COMPOUND B]
R. Oc1ccc2nc(-c3ccc([18F])cc3)sc2c1
S. Cc1ccc2nc(-c3ccc([18F])cc3)sc2c1
## Task Arrange these compounds by their Drug uptake, starting with the largest number. The response must list the labels following the requested ordering.
## Result Q, P, R, S
